Values compiled from patent US20100120763A1.

Target: PDE10A (Homo sapiens, UniProt Q9Y233)
Construct: made in house; host or cells: SF21 insect cells (baculovirus)
Sequence (Q9Y233 1-779 isoform Q9Y233-1): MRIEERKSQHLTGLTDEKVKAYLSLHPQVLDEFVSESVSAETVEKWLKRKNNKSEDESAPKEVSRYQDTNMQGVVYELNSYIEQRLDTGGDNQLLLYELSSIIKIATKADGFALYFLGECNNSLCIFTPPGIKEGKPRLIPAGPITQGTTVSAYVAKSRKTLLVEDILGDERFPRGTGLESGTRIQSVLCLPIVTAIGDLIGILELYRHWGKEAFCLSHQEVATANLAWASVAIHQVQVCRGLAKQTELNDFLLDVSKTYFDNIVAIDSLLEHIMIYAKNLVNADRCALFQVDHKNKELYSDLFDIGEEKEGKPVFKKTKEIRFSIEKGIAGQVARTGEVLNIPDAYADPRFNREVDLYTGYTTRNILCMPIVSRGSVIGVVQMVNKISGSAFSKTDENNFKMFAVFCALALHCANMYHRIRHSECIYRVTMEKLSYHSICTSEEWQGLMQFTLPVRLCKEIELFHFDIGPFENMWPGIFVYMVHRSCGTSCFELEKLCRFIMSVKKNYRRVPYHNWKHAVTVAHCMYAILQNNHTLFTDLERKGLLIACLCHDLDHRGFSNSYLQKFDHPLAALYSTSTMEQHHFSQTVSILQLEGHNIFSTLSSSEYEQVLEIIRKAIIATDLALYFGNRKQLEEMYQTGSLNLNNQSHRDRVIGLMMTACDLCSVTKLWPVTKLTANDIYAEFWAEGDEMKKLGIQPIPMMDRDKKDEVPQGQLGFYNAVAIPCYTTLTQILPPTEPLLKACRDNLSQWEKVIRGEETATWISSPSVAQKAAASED
Assay: Inhibition of recombinant PDE10A (baculovirus/SF21 system), [3H]-cAMP SPA
Type: biochemical
Conditions: recombinant PDE10A1, cytosolic; 0.1 μM [3H]-cAMP, 37° C., 30 minutes; read-out: PDE10A IC50
pIC50: −log10 of the molar value.
measurement-label: pIC50

(P) COc1cc(F)cc2c1nnc1c(C)nc(-c3c(C)nn(C)c3C)n12
(Q) CCOc1ccc(Cl)c(-c2nc(C)c3nnc4c(OC)cc(F)cc4n23)c1
(R) COc1cc(OC)c2nnc3c(C)nc(-c4c(C)n[nH]c4C)n3c2c1
(S) Cc1cnccc1-c1nc(C)c2nnc3c(Cl)cc(C(F)(F)F)cc3n12
Ask: Parameters: sort_field (pIC50), sort_dir (desc). State the ranking by listing the labels in the requested order.
Result: R, Q, P, S
(R: 9.15, Q: 8.08, P: 7.88, S: 7.49)

(a) COc1cc(F)c2nnc3c(C)nc(-c4cc(C)ccc4F)n3c2c1
(b) COc1cc(F)cc2c1nnc1c(C)nc(-c3cc(C)ccc3F)n12
Ask: # compare pIC50 for a vs b ; return the one with the smaller value Let me know the label of the one you choose.
Result: a
(a: 7.82, b: 8.15)

====

melting point listing for selected compounds.

The examples below pair each entry with its known result.
>>> reported_result("COc1ccc2c(c1)nnc1c(C)nc(-c3cccnc3C)n12")
"202 to 205 °C"
>>> reported_result("COc1ccccc1-c1nc(C)c2nnc3ccc(F)cc3n12")
"196 to 198 °C"
>>> reported_result("Cc1nc(-c2cc(OC(C)C)ccc2F)n2c1nnc1ccc(Cl)cc12")
"174 to 177 °C"
>>> reported_result("COc1ccc2c(c1)nnc1c(C)nc(-c3cc(Cl)ccc3Cl)n12")
"144 to 147 °C"

// recorded melting point for CCCOc1ccc(F)c(-c2nc(C)c3nnc4cc(F)ccc4n23)c1 : 119 to 122 °C

So for Cc1nc(-c2ccccc2Cl)n2c1nnc1ccc(N3CCOCC3)cc12 , the logged melting point turned out to be 242 to 245 °C

Entry CCCCOc1ccc(F)c(-c2nc(C)c3nnc4cc(F)ccc4n23)c1 ; melting point = 91 to 94 °C

What the record says about CCCCOc1ccc(F)c(-c2nc(C)c3nnc4ccc(F)cc4n23)c1 : melting point is 148 to 151 °C

Memo: COc1cc2nnc3c(C)nc(-c4ccccc4Cl)n3c2cc1OC , reported melting point: 269 to 272 °C

// field: melting point; key: Cc1nc(-c2cc(Cl)ccc2Cl)n2c1nnc1cc(F)ccc12 ; value = 186 to 190 °C

====

Target: PDE10A (Homo sapiens)
Construct: made in house; host or cells: SF21 insect cells (baculovirus)
Experiment: Inhibition of recombinant PDE10A (baculovirus/SF21 system), [3H]-cAMP SPA
Type: biochemical
measurement-label: IC50 (nM)
Provide the reading as a plain figure in nM.

Entry CCC(C)c1nc(C)c2nnc3ccc(F)cc3n12 (stereo not shown) [Example 10] ; IC50 = 410

====

Molecular target: PDE2A (Homo sapiens, UniProt O00408)
Construct: made in house; host or cells: SF21 insect cells (baculovirus)
Sequence (O00408 whole entry): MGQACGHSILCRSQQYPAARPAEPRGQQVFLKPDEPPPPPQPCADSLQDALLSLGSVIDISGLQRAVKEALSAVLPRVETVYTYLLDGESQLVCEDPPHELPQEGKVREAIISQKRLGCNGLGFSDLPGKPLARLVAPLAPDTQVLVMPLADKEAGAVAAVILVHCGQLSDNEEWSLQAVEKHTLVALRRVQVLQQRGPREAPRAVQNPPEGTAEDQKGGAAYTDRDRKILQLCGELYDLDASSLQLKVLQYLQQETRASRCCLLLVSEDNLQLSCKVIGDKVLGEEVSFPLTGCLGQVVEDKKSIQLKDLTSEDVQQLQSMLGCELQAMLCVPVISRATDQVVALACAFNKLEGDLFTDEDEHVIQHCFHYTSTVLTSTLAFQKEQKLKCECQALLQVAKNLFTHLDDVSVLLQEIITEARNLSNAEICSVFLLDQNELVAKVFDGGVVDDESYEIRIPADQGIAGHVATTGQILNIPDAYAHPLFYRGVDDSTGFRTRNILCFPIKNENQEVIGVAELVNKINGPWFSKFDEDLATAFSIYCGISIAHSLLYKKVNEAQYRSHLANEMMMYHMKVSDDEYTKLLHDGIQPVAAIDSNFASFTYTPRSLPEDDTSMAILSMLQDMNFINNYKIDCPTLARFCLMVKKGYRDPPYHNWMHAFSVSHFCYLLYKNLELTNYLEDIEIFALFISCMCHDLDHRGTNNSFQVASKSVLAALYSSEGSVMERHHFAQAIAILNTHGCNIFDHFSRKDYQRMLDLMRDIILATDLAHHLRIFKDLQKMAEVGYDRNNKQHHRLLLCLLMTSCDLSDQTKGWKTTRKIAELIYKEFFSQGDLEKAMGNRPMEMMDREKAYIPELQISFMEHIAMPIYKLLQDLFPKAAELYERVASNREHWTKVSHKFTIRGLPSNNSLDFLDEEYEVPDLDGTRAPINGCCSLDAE
Test: Inhibition of recombinant PDE2A (expressed in baculovirus/SF21-cells), [3H]-cAMP SPA
Assay type: biochemical
measurement-label: IC50 (µM)

>>> reported_result("COc1cc(F)c2nnc3c(C)nc(-c4cc(Cl)ccc4C)n3c2c1")
0.00839
>>> reported_result("Cc1cn(-c2ccc3nnc4c(C)nc(C5CCCCC5)n4c3c2)c(C2CCCCC2)n1")
0.242
>>> reported_result("COc1cccc(-c2nc(C)c3nnc4c(F)cc(OC)cc4n23)c1")
0.0648
>>> reported_result("COc1ccccc1-c1nc(C)c2nnc3cc(F)ccc3n12")
0.5
>>> reported_result("COc1cc(F)c2nnc3c(C)nc(-c4c(C)n[nH]c4C)n3c2c1")
0.0403

(I) COc1cc(F)c2nnc3c(C)nc(-c4cnccc4C)n3c2c1
(II) COc1cc(F)c2nnc3c(C)nc(-c4ccc(F)cc4C)n3c2c1
Ask: // compare: I vs II , metric IC50, want the smaller Answer by stating the label of the chosen item.
Result: II
